- testSystem: porcine pancreatic elastase (PPE) (Sus scrofa, UniProt P00772)
- Sequence (P00772 27-266): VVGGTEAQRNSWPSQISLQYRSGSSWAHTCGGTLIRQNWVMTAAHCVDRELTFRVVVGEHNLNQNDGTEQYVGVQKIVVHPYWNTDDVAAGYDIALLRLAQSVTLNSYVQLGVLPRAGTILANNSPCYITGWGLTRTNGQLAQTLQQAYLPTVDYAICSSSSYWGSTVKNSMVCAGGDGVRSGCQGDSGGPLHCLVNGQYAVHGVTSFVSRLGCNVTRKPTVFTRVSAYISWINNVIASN
valueType: IC50 (µM)

INSERT INTO measurements (compound, unitannotation, readoutvalue) VALUES
  ('CC(NC(=O)[C@H](CC(=O)N(C)C)NC(=O)[C@@H](NC(=O)CC(C)(C)C)C(C)(C)C)C(=O)c1nc2ccccc2s1 (stereo partly shown)', 'µM', 9);

---

- testSystem: HCMV No protease (Human cytomegalovirus, UniProt P16753)
- Construct: at a position located near the center of the precursor (R-site) to excise the catalytic domain (No)
- Sequence (P16753 1-256): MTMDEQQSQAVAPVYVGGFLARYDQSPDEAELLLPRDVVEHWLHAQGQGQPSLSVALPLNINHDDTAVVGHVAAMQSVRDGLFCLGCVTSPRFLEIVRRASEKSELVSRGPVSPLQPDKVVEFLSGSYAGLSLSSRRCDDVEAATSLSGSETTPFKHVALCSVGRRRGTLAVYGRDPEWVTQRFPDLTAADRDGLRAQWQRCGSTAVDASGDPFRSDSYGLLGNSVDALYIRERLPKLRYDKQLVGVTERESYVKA
- testSummary: biochemical
- setupConditions: inhibitor pre-incubated 5 hr at 30° C. with enzyme, fluorogenic substrate; read-out: IC50
- Method: HCMV No protease assay: HCMV No protease was assayed with an internally quenched fluorogenic substrate based on the maturation cleavage site (Abz-[…](3-NO2)R-OH, kcat /KM =260 M^-1 s^-1) . […] A protocol adaptable to a 96-well plate format was designed for the determination of IC50 values of inhibitors. […] No quenching was required before fluorescence measurement since the total scanning time by the plate reader accessory was brief relative to the duration of the reaction. […]
# reported IC50; entries follow
valueType: IC50

INSERT INTO measurements (compound, valuetype, readoutvalue) VALUES
  ('CC(NC(=O)[C@H](CC(=O)N(C)C)NC(=O)[C@@H](NC(=O)[C@@H](NC(=O)OC(C)(C)C)C(C)C)C(C)C)C(=O)C(=O)NCC(C)(C)C (some centres unmarked)', 'IC50', '4300 nM'),
  ('Cc1ccc(NC(=O)C(=O)C(C)NC(=O)[C@H](CC(=O)N(C)C)NC(=O)[C@@H](NC(=O)[C@@H](NC(=O)OC(C)(C)C)C(C)C)C(C)C)cc1 (some centres unmarked)', 'IC50', '1400 nM'),
  ('C=CCOC(=O)OCCNC(=O)C(=O)C(C)NC(=O)[C@H](CC(=O)N(C)C)NC(=O)[C@@H](NC(=O)CC(C)(C)C)C(C)(C)C (some centres unmarked)', 'IC50', '590 nM'),
  ('CC(NC(=O)[C@H](CC(=O)N(C)C)NC(=O)[C@@H](NC(=O)CC(C)(C)C)C(C)(C)C)C(=O)C(=O)NC[C@@H](C)c1ccccc1 (some centres unmarked)', 'IC50', '200 nM'),
  ('C[C@H](NC(=O)[C@H](CC(=O)N1CCCC1)NC(=O)[C@@H](NC(=O)CC(C)(C)C)C(C)(C)C)C(=O)c1nc2ccccc2o1', 'IC50', '500 nM');
